List of melting point values.
measure: melting point

molecule	measure	result
O=CCC(O)[C@H](O)CO (stereo in doubt)	melting point	91 °C
O=C1CC[C@@]2(O)[C@H]3Cc4ccc(O)c5c4[C@@]2(CCN3CC2CC2)[C@H]1O5	melting point	169 °C
Cc1cccc(C(N)=O)c1	melting point	95 °C
CCCCCCCCBr	melting point	-55 °C
CC(=O)NCC(=O)O	melting point	206 °C

----------
molecule	melting point
C=CC(C)CC (stereo unspecified)	-153 °C
O=C(O)c1ccnc(C(=O)O)c1C(=O)O	250 °C
O=Cc1ccccc1O[C@@H]1O[C@H](CO)[C@@H](O)[C@H](O)[C@H]1O	175 °C
O=C(O)c1ccncc1	315 °C
CC(C)C=CC(=O)O	35 °C
C[N+](C)(C)CCOC(Cc1ccccc1)c1ccccc1.[Br-] (stereo unspecified)	146 °C
c1ccc2c(c1)nnn2C1CCCCC1	104 °C
C=C(C)C(=O)OCCN(C)C	-30 °C
Nc1c(Cl)cc(C(=O)O)cc1Cl	292 °C
CC(C)=CCOc1c2occc2cc2ccc(=O)oc12	102 °C
O=C1CSC(=O)N1	128 °C
O=C1NC(=O)C2C3C(C(O)(c4ccccc4)c4ccccn4)=CC(C3=C(c3ccccc3)c3ccccn3)C12 (stereo unspecified)	194 °C
CCOC(=O)C(NC(C)=O)C(=O)OCC	96.3 °C
CC(C)(C)C(=O)CC(=O)C(F)(F)C(F)(F)C(F)(F)F	38 °C
Cc1ncc(COP(=O)(O)O)c(C=O)c1O.O	142 °C
CC1(C)C(C=C(Cl)Cl)C1C(=O)OC(C#N)c1cccc(Oc2ccccc2)c1 (stereo unspecified)	81.3 °C
O=C(Nc1ccc(Cl)cc1C(O)c1ccccc1)c1ccncc1 (stereo unspecified)	211 °C
CCCCCCCCCCCCCCCC(=O)OC(=O)CCCCCCCCCCCCCCC	64 °C
CCCCCCCC(=O)Oc1c(I)cc(C#N)cc1I	59.5 °C
C/C=N/O	45 °C
C=CC=CC=C	-12 °C
Cc1cc(C)c2ccccc2c1C	55.5 °C
CC(C)CCCC(C)CCCC(C)CCCCC(C)CCCC(C)CCCC(C)C (stereo unspecified)	-38 °C
OCN(CO)c1nc(N(CO)CO)nc(N(CO)CO)n1	137 °C
O=C(O)CS	-16.5 °C
COc1cc(Cl)ccc1N	52 °C
